- System: HIV-1 reporter virus, Q148H/G140S (QHGS) integrase
- ASSAY INFO: Luciferase reporter virus infectivity assay in 293T cells
- Format: cell-based
- MEASUREMENT PARAMETERS: Human immunodeficiency virus 1, HEK-293T, 48 h, read-out: Luciferase assay EC50, QHGS
- Excerpt: Infectivity assays using reporter viruses derived from lentiviral vectors capable of a single round of infection were used to determine the activity (EC50) of compounds. The DNA used to generate viruses for infection was the full-length HIV-1 genome which had been envelope-deleted. In addition, a reporter gene (the firefly luciferase gene from Photinus pyralis) was cloned into the nef region of the HIV backbone for ease of assay readout. […]. […]
Give measured EC50 for each item. Keep answers brief.

Count: 4. Required value per item: EC50.
1. CN1CCN(c2cc(N3CCOCC3)cn3c(=O)c(O)c(-c4ncc(Cc5ccc(F)c(Cl)c5)s4)nc23)C1=O
2. O=c1c(O)c(-c2ncc(Cc3ccc(Cl)c(Cl)c3)s2)nc2c(N3CCCS3(=O)=O)cc(N3CCOCC3)cn12
3. O=C1OCCN1c1cc(N2CCOCC2)cn2c(=O)c(O)c(-c3ncc(Cc4ccc(F)cc4)[nH]3)nc12
4. CN1CCN(c2cc(N3CCOCC3)cn3c(=O)c(O)c(-c4ncc(Cc5ccc(F)cc5)s4)nc23)S1(=O)=O

Ans.
1: 0.001 to 0.1 µM; 2: 0.1 to 1 µM; 3: 0.1 to 1 µM; 4: 0.001 to 0.1 µM

* * *

- Test system: HIV-1 reporter virus, Q148K/G140A/E138A (QKGAEA) integrase
- ASSAY INFO: Luciferase reporter virus infectivity assay in 293T cells
- Assay type: cell-based
- MEASUREMENT PARAMETERS: Human immunodeficiency virus 1, HEK-293T, 48 h, read-out: Luciferase assay EC50, QKGAEA
OBSERVABLE: EC50

INSERT INTO measurements (compound, target_system, observable, reading) VALUES
  ('O=C1OCCN1c1cc(N2CCOCC2)cn2c(=O)c(O)c(-c3ncc(Cc4ccc(F)cc4)s3)nc12 [Example 103]', 'HIV-1 reporter virus, Q148K/G140A/E138A (QKGAEA) integrase', 'EC50', '100 to 1000 nM');

For every listed record, write down its EC50.
1. O=c1c(O)c(-c2ncc(Cc3ccc(F)cc3)s2)nc2ccc(N3CCOCC3)cn12 [Example 41]
2. O=c1c(O)c(-c2ncc(Cc3ccc(F)cc3)[nH]2)nc2ccc(N3CCOCC3)cn12 [Example 45]
3. CN1CCN(c2cc(N3CCOCC3)cn3c(=O)c(O)c(-c4ncc(Cc5ccc(F)c(Cl)c5)s4)nc23)C1=O [Example 60]
4. CC(C)N1CCN(c2cc(N3CCOCC3)cn3c(=O)c(O)c(-c4ncc(Cc5ccc(F)cc5)s4)nc23)C1=O [Example 56]
5. O=c1c(O)c(-c2ncc(Cc3ccc(F)cc3)s2)nc2c(N3CCCS3(=O)=O)cc(N3CCOCC3)cn12 [Example 105]

Ans.
["> 1000 nM", "100 to 1000 nM", "1 to 100 nM", "1 to 100 nM", "100 to 1000 nM"]

Quick request: EC50 for each listed item, please.
1. CN1CCN(c2cc(N3CCOCC3)cn3c(=O)c(O)c(-c4ncc(Cc5ccc(F)cc5)s4)nc23)C1=O [Example 101]
2. CN1CCN(c2cc(N3CCOCC3)cn3c(=O)c(O)c(-c4ncc(Cc5ccc(F)cc5)s4)nc23)S1(=O)=O [Example 99]

Ans.
1: 100 to 1000 nM; 2: 100 to 1000 nM
